- MEASUREMENT_NOTES: qHTS assay to identify small molecule agonists of H2AX - cell viability counter screen (AID 1224847); note: nearly all actives have a fitted effect of over 30% in size; note: potency is the fitted concentration of half-maximal effect
- MEASUREMENT_CONDITIONS: CHO-K1 viability, CellTiter-Glo luminescence, 3 h; series mostly up to 154 µM
Records with an inconclusive call do not appear. Calls of active or inactive are those of the source. Calls come from the whole dose curve.
MEASURED_QUANTITY: Potency

Below, 5 compounds whose answers are already recorded.
- COMPOUND: "CN1C(=O)OC(C)(C)C1=O"
  Potency: "inactive"
- COMPOUND: "O=C1C(=O)c2ccccc2C(O)=C1C1CCC(c2ccc(Cl)cc2)CC1 (stereo unspecified)"
  Potency: "inactive"
- COMPOUND: "C=C1c2cccc(O)c2C(O)=C2C(=O)[C@]3(O)C(O)=C(C(N)=O)C(=O)[C@@H](N(C)C)[C@@H]3[C@@H](O)[C@H]12"
  Potency: "inactive"
- COMPOUND: "N#[N+]c1ccc2c(S(=O)(=O)[O-])cccc2c1O"
  Potency: "inactive"
- COMPOUND: "Clc1cc(Cl)nc(Cl)n1"
  Potency: "inactive"

Would you kindly look at the next entry?
Challenge: Form field: reported Potency of `Nc1ccc(N=Nc2ccccc2)c(N)c1`
Response given: 98.6 µM (active)

Where do these numbers come from? They come from PubChem BioAssay (Tox21).
